// endpoint IC50 / system JAK3 enzyme (Homo sapiens, UniProt P52333)
# unit: nM | format: bare number

Query block: # query: IC50 of entry C[C@@H](N)c1cccc(-c2cc3c(N[C@H](C)C(C)(C)F)c(C(N)=O)cnn3c2)c1
Result block: 0.7

Query block: Which IC50 is listed for CCCNc1c(C(N)=O)cnn2cc(-c3ccccc3)cc12 ?
Result block: 11

Query block: Given the molecule CCOC(=O)Nc1cc2c(N[C@H](C)C(C)(C)C)c(C(N)=O)cnn2c1 , what is its reported IC50?
Result block: 0.2

Query block: Entry COc1cc(-c2cc3c(NC(C)C)c(C(N)=O)cnn3c2)c(F)cn1 has what IC50?
Result block: 35.1

Query block: Which measured IC50 value corresponds to CC(Nc1c(C(N)=O)cnn2cc(-c3ccncc3)cc12)c1cc(F)ccc1F (racemic) ?
Result block: 49.2

Query block: IC50 for C[C@@H](Nc1c(C(N)=O)cnn2cc(-c3ccc(F)cc3)cc12)C(C)(C)F ?
Result block: 18.8

Query block: Entry under review: C[C@@H](Nc1c(C(N)=O)cnn2cc(N3CCCCS3(=O)=O)cc12)C(C)(C)C . Reported IC50?
Result block: 21.6

Query block: Given the entry C[C@@H](Nc1c(C(N)=O)cnn2cc(N3CCCC3=O)cc12)C(C)(C)C , report its measured IC50.
Result block: 0.9

Consider the additional molecule presented here.
Query block: Query (molecule): CNc1c(C(N)=O)cnn2cc(-c3cccc(CC#N)c3)cc12 ; field requested: IC50
Result block: 88

* * *

Record set of IC50 for target or system GST-JAK3 enzyme (Homo sapiens, UniProt P52333).
// return the numeric value with its unit appended

Query block: Reported IC50 for GST-JAK3 enzyme (Homo sapiens, UniProt P52333), given CC(C)Nc1c(C(N)=O)cnn2cc(-c3ccc(C#N)cc3)cc12 ?
Result block: 11.1 nM

New cases:
Query block: Tell me reported IC50 for COc1ccc(-c2cc3c(N[C@H](C)c4ccccc4F)c(C(N)=O)cnn3c2)cn1 , tested with GST-JAK3 enzyme (Homo sapiens, UniProt P52333).
Sequence (P52333 whole entry): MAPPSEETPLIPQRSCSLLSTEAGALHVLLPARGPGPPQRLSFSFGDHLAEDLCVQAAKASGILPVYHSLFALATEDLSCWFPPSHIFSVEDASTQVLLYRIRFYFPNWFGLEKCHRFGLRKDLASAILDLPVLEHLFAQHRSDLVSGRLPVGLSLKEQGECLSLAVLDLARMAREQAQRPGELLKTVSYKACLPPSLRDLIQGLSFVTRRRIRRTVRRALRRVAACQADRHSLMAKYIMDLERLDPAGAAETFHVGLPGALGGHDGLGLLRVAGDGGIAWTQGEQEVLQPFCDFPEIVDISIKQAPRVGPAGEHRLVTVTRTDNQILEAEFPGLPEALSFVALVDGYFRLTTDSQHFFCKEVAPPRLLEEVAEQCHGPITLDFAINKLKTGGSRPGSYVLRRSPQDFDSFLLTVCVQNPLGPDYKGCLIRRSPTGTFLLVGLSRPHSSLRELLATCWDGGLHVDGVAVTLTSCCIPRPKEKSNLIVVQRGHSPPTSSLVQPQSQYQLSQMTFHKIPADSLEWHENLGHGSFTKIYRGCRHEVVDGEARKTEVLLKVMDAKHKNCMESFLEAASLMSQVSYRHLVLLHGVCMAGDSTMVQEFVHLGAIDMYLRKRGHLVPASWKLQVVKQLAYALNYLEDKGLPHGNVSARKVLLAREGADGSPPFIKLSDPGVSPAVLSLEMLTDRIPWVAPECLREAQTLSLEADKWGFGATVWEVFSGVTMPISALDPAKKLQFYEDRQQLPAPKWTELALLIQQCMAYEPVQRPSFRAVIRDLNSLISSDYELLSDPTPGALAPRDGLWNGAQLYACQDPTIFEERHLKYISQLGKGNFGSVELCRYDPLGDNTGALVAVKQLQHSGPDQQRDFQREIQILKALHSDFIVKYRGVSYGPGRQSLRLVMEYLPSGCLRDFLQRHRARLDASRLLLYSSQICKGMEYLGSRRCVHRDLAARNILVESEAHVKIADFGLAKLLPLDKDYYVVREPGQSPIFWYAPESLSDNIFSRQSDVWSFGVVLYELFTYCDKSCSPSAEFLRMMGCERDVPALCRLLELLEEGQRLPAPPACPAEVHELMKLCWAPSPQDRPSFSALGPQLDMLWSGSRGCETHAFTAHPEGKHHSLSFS
Result block: 60.9 nM

* * *

Test Target: UniProt P23458
Sequence (P23458 whole entry): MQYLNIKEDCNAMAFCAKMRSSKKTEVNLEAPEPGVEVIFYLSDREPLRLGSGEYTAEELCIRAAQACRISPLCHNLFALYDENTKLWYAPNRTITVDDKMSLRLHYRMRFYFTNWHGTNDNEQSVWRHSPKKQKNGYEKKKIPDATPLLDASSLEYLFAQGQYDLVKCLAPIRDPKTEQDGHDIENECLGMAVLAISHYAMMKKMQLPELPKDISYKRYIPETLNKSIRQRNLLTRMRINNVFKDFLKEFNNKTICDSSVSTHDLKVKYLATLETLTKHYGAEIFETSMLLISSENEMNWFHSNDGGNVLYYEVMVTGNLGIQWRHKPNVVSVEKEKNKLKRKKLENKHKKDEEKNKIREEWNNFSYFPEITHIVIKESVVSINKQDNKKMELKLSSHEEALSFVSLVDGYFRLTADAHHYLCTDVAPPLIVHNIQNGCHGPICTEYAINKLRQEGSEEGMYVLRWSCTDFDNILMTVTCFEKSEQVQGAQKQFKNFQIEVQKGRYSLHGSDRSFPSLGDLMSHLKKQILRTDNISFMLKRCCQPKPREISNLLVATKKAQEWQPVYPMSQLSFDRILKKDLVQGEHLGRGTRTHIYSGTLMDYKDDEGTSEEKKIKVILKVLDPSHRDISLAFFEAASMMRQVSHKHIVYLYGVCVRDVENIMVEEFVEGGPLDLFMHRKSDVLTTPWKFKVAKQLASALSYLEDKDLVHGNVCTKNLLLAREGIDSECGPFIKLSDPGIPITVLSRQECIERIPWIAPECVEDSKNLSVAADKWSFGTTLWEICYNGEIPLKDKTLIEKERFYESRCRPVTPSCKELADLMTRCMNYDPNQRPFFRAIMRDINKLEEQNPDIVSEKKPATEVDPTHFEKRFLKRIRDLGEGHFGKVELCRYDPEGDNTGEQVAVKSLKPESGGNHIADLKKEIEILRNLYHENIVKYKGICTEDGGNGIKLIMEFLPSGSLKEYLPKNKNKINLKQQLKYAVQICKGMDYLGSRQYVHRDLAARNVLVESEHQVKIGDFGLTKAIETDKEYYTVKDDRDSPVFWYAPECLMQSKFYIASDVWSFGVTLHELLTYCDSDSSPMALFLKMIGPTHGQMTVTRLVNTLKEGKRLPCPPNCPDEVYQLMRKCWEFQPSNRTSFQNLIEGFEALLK
pIC50: −log10 of the molar value.
Lab note: compare pIC50 against 7. Equal or greater, write 1. Smaller, write -1.

Example cases with answers are listed next.
Query block: Textbook exercise: given the entry CC(C)Nc1c(C(N)=O)cnn2cc(-c3ccc(C#N)cc3)cc12 , state whether its pIC50 is greater than or equal to 7.
Result block: 1

Query block: Tell me whether pIC50 is at least 7 here: CC(C)Nc1c(C(N)=O)cnn2cc(-c3ccnc4ccccc34)cc12
Result block: -1

Query block: Is the recorded value of pIC50 equal to or greater than 7 for this compound? C[C@@H](Nc1c(C(N)=O)cnn2cc(-n3ccccc3=O)cc12)C(C)(C)C
Result block: -1

API: the following record is the query input.
Query block: Please indicate if the recorded pIC50 for CCOC(=O)Nc1cc2c(N[C@H](C)C(C)(C)C)c(C(N)=O)cnn2c1 meets or exceeds 7.
Result block: 1

* * *

// endpoint IC50 / system GST-JAK3 enzyme (Homo sapiens)
Answer format: numeric, nM implied, no suffix.

Query block: Entry under review: C[C@@H](Nc1c(C(N)=O)cnn2cc(-c3cccc(C(O)CO)c3)cc12)C1CC1 (mixture of isomers) [Example 187] . Reported IC50?
Result block: 1.3

Continuing:
Query block: # input molecule: C[C@@H](Nc1c(C(N)=O)cnn2cc(-c3nnc(N4CCN(C)CC4)o3)cc12)C1(C)CC1 [Example 241] ; wanted: its IC50
Result block: 1.8

Query block: May I ask what IC50 has been recorded for COc1ccc(-c2cc3c(N[C@H](C)C(C)(C)c4nc(C(N)=O)co4)c(C(N)=O)cnn3c2)cc1 [Example 219] ?
Result block: 1.2

Query block: # query: IC50 of entry C[C@@H](Nc1c(C(N)=O)cnn2cc(-c3cccc(C#N)c3)cc12)C(C)(C)F [Example 53]
Result block: 1.4

Query block: Bench note: what IC50 did CC(C)Nc1c(C(N)=O)cnn2cc(-c3ccnc4ccccc34)cc12 [Example 153] show?
Result block: 223

Query block: Which IC50 reading was recorded for the molecule C[C@@H](Nc1c(C(N)=O)cnn2cc(-c3cnc(N)nc3)cc12)C1CC1 [Example 192] ?
Result block: 2.1
